system: Acinetobacter baumannii; test: Antibacterial activity against imipenem-susceptible Acinetobacter baumannii ab3 by broth dilution method; type: functional
metric: MIC (µg/mL)
Answer format: numeric, µg/mL implied, no suffix.

Which MIC value belongs to CC(C)(O/N=C(\C(=O)N[C@@H]1C(=O)N2C(C(=O)[O-])=C(C[n+]3ccccc3)CS[C@H]12)c1csc(N)n1)C(=O)O [CEFTAZIDIME] ?
48

Which MIC value belongs to C[C@@H](O)[C@H]1C(=O)N2C(C(=O)O)=C(S[C@@H]3CN[C@H](C(=O)N(C)C)C3)[C@H](C)[C@H]12 [MEROPENEM] ?
0.38

Which MIC value belongs to NCC[C@H](O)C(=O)N[C@@H]1C[C@H](N)[C@@H](O[C@H]2O[C@H](CN)[C@@H](O)[C@H](O)[C@H]2O)[C@H](O)[C@H]1O[C@H]1O[C@H](CO)[C@@H](O)[C@H](N)[C@H]1O [AMIKACIN] ?
3

Which MIC value belongs to O=C(O)c1cn(C2CC2)c2cc(N3CCNCC3)c(F)cc2c1=O [CIPROFLOXACIN] ?
0.125

Which MIC value belongs to CO/N=C(\C(=O)N[C@@H]1C(=O)N2C(C(=O)[O-])=C(C[N+]3(C)CCCC3)CS[C@H]12)c1csc(N)n1 [CEFEPIME] ?
6

Which MIC value belongs to C[C@@H](O)[C@H]1C(=O)N2C(C(=O)O)=C(SCCNC=N)C[C@H]12 [IMIPENEM ANHYDROUS] ?
1

---

test system: Acinetobacter baumannii; assay: Antibacterial activity against imipenem-susceptible Acinetobacter baumannii ab1254 by broth dilution method; type: functional
Give measured MIC for each item. Keep answers brief.
Answer format: numeric, µg/mL implied, no suffix.

Which MIC value belongs to C[C@@H](O)[C@H]1C(=O)N2C(C(=O)O)=C(SCCNC=N)C[C@H]12 [IMIPENEM ANHYDROUS] ?
3

Which MIC value belongs to C[C@@H](O)[C@H]1C(=O)N2C(C(=O)O)=C(S[C@@H]3CN[C@H](C(=O)N(C)C)C3)[C@H](C)[C@H]12 ?
0.75

---

test system: Acinetobacter baumannii; experiment: Antibacterial activity against imipenem-resistant Acinetobacter baumannii abh14 by broth dilution method; format: functional
Give measured MIC for each item. Keep answers brief.

Which MIC value belongs to CC(C)(O/N=C(\C(=O)N[C@@H]1C(=O)N2C(C(=O)[O-])=C(C[n+]3ccccc3)CS[C@H]12)c1csc(N)n1)C(=O)O [CEFTAZIDIME] ?
> 256 µg/mL

Which MIC value belongs to NCC[C@H](O)C(=O)N[C@@H]1C[C@H](N)[C@@H](O[C@H]2O[C@H](CN)[C@@H](O)[C@H](O)[C@H]2O)[C@H](O)[C@H]1O[C@H]1O[C@H](CO)[C@@H](O)[C@H](N)[C@H]1O [AMIKACIN] ?
> 256 µg/mL

Which MIC value belongs to C[C@@H](O)[C@H]1C(=O)N2C(C(=O)O)=C(S[C@@H]3CN[C@H](C(=O)N(C)C)C3)[C@H](C)[C@H]12 [MEROPENEM] ?
> 32 µg/mL

Which MIC value belongs to C[C@@H](O)[C@H]1C(=O)N2C(C(=O)O)=C(SCCNC=N)C[C@H]12 [IMIPENEM ANHYDROUS] ?
32 µg/mL

Which MIC value belongs to CCN1CCN(C(=O)N[C@@H](C(=O)N[C@@H]2C(=O)N3[C@@H]2SC(C)(C)[C@@H]3C(=O)O)c2ccccc2)C(=O)C1=O [PIPERACILLIN] ?
> 256 µg/mL

Which MIC value belongs to O=C(O)c1cn(C2CC2)c2cc(N3CCNCC3)c(F)cc2c1=O [CIPROFLOXACIN] ?
> 32 µg/mL

Which MIC value belongs to CO/N=C(\C(=O)N[C@@H]1C(=O)N2C(C(=O)O)=C(COC(C)=O)CS[C@H]12)c1csc(N)n1 [CEFOTAXIME] ?
> 256 µg/mL

Which MIC value belongs to CO/N=C(\C(=O)N[C@@H]1C(=O)N2C(C(=O)[O-])=C(C[N+]3(C)CCCC3)CS[C@H]12)c1csc(N)n1 [CEFEPIME] ?
256 µg/mL

---

test system: Acinetobacter baumannii; assay: Antibacterial activity against imipenem-resistant Acinetobacter baumannii abh36 by broth dilution method; assay type: functional
metric: MIC

Which MIC value belongs to CCN1CCN(C(=O)N[C@@H](C(=O)N[C@@H]2C(=O)N3[C@@H]2SC(C)(C)[C@@H]3C(=O)O)c2ccccc2)C(=O)C1=O ?
> 256 µg/mL

Which MIC value belongs to C[C@@H](O)[C@H]1C(=O)N2C(C(=O)O)=C(SCCNC=N)C[C@H]12 [IMIPENEM ANHYDROUS] ?
32 µg/mL

Which MIC value belongs to NCC[C@H](O)C(=O)N[C@@H]1C[C@H](N)[C@@H](O[C@H]2O[C@H](CN)[C@@H](O)[C@H](O)[C@H]2O)[C@H](O)[C@H]1O[C@H]1O[C@H](CO)[C@@H](O)[C@H](N)[C@H]1O ?
> 256 µg/mL

Which MIC value belongs to CO/N=C(\C(=O)N[C@@H]1C(=O)N2C(C(=O)O)=C(COC(C)=O)CS[C@H]12)c1csc(N)n1 ?
> 256 µg/mL

Which MIC value belongs to CC(C)(O/N=C(\C(=O)N[C@@H]1C(=O)N2C(C(=O)[O-])=C(C[n+]3ccccc3)CS[C@H]12)c1csc(N)n1)C(=O)O ?
> 256 µg/mL

Which MIC value belongs to CO/N=C(\C(=O)N[C@@H]1C(=O)N2C(C(=O)[O-])=C(C[N+]3(C)CCCC3)CS[C@H]12)c1csc(N)n1 [CEFEPIME] ?
256 µg/mL

Which MIC value belongs to O=C(O)c1cn(C2CC2)c2cc(N3CCNCC3)c(F)cc2c1=O ?
> 32 µg/mL

Which MIC value belongs to C[C@@H](O)[C@H]1C(=O)N2C(C(=O)O)=C(S[C@@H]3CN[C@H](C(=O)N(C)C)C3)[C@H](C)[C@H]12 ?
> 32 µg/mL

---

tested on: Acinetobacter baumannii; test: Antibacterial activity against imipenem-resistant Acinetobacter baumannii abh26 by broth dilution method; assay type: functional
metric: MIC

Observed MIC on Acinetobacter baumannii for CCN1CCN(C(=O)N[C@@H](C(=O)N[C@@H]2C(=O)N3[C@@H]2SC(C)(C)[C@@H]3C(=O)O)c2ccccc2)C(=O)C1=O , please.
> 256 µg/mL

Observed MIC on Acinetobacter baumannii for CO/N=C(\C(=O)N[C@@H]1C(=O)N2C(C(=O)O)=C(COC(C)=O)CS[C@H]12)c1csc(N)n1 , please.
> 256 µg/mL

Observed MIC on Acinetobacter baumannii for NCC[C@H](O)C(=O)N[C@@H]1C[C@H](N)[C@@H](O[C@H]2O[C@H](CN)[C@@H](O)[C@H](O)[C@H]2O)[C@H](O)[C@H]1O[C@H]1O[C@H](CO)[C@@H](O)[C@H](N)[C@H]1O , please.
> 256 µg/mL

---

Give measured MIC for each item. Keep answers brief.
test system: Acinetobacter baumannii; assay: Antibacterial activity against imipenem-susceptible Acinetobacter baumannii ab1254 by broth dilution method; format: functional

Which MIC value belongs to CC(C)(O/N=C(\C(=O)N[C@@H]1C(=O)N2C(C(=O)[O-])=C(C[n+]3ccccc3)CS[C@H]12)c1csc(N)n1)C(=O)O [CEFTAZIDIME] ?
> 256 µg/mL

Which MIC value belongs to CCN1CCN(C(=O)N[C@@H](C(=O)N[C@@H]2C(=O)N3[C@@H]2SC(C)(C)[C@@H]3C(=O)O)c2ccccc2)C(=O)C1=O [PIPERACILLIN] ?
> 256 µg/mL

Which MIC value belongs to O=C(O)c1cn(C2CC2)c2cc(N3CCNCC3)c(F)cc2c1=O [CIPROFLOXACIN] ?
> 32 µg/mL

Which MIC value belongs to CO/N=C(\C(=O)N[C@@H]1C(=O)N2C(C(=O)O)=C(COC(C)=O)CS[C@H]12)c1csc(N)n1 [CEFOTAXIME] ?
> 256 µg/mL

---

tested on: Acinetobacter baumannii; assay: Antibacterial activity against imipenem-resistant Acinetobacter baumannii abh26 by broth dilution method; type: functional
metric: MIC (µg/mL)
Answer format: numeric, µg/mL implied, no suffix.

Which MIC value belongs to CO/N=C(\C(=O)N[C@@H]1C(=O)N2C(C(=O)[O-])=C(C[N+]3(C)CCCC3)CS[C@H]12)c1csc(N)n1 [CEFEPIME] ?
256

Which MIC value belongs to C[C@@H](O)[C@H]1C(=O)N2C(C(=O)O)=C(S[C@@H]3CN[C@H](C(=O)N(C)C)C3)[C@H](C)[C@H]12 [MEROPENEM] ?
32

Which MIC value belongs to C[C@@H](O)[C@H]1C(=O)N2C(C(=O)O)=C(SCCNC=N)C[C@H]12 [IMIPENEM ANHYDROUS] ?
32
